Reference source: ChEMBL document CHEMBL1201861

- Test system: MKN-45;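 also: growth inhibition of human MKN-45 cells, measured with a cell viability assay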
- experiment.notes: cells
- Format: functional, cell-based, Homo sapiens
- test.context: Homo sapiens, MKN-45
- Description: SANGER: Inhibition of human MKN45 cell growth in a cell viability assay.
pIC50: −log10 of the molar value.
reported.endpoint: pIC50

{"compound": "C[C@]1(O)C[C@@H](c2nc(-c3ccc4ccc(-c5ccccc5)nc4c3)c3c(N)nccn32)C1", "reported.endpoint": "pIC50", "measured.result": "< 5.59"}
{"compound": "CCC1=C[C@@H]2CN(C1)Cc1c([nH]c3ccccc13)[C@@](C(=O)OC)(c1cc3c(cc1OC)N(C)[C@H]1[C@@](O)(C(=O)OC)[C@H](OC(C)=O)[C@]4(CC)C=CCN5CC[C@]31[C@@H]54)C2", "reported.endpoint": "pIC50", "measured.result": 8.64}
{"compound": "COc1cc([C@@H]2c3cc4c(cc3[C@@H](O[C@@H]3O[C@@H]5CO[C@@H](C)O[C@H]5[C@H](O)[C@H]3O)[C@H]3COC(=O)[C@H]23)OCO4)cc(OC)c1O [ETOPOSIDE]", "reported.endpoint": "pIC50", "measured.result": 5.73}
{"compound": "CCOc1nc(NC(=O)Cc2cc(OC)ccc2OC)cc(N)c1C#N", "reported.endpoint": "pIC50", "measured.result": "< 5.00"}
{"compound": "Cn1cc(C2=C(c3ccc(Cl)cc3Cl)C(=O)NC2=O)c2ccccc21", "reported.endpoint": "pIC50", "measured.result": "< 5.00"}
{"compound": "C=CCc1cccc(/C=N/NC(=O)CN2CCN(Cc3ccccc3)CC2)c1O", "reported.endpoint": "pIC50", "measured.result": "< 5.59"}
